Test system: HS 578T breast
Test Name: NCI tumour cell line growth inhibition, 48 h; in the data active = GI50 below about 0.43 µM; inactive = the rest
Select the correct class. Options are class 1 for active, class 0 for inactive and nothing else.

Examples from the recorded data:
Molecule	Label Class
Cc1cc(NC(=O)c2ccc(NS(=O)(=O)CCO)cc2N2CCC3(CC2)CC3)nc(N2CCC(F)(F)CC2)n1	class 0
CCCCCCCCN(CCCCCCCC)C(=N)c1ccnc2ccccc12	class 0
COc1cc(N2CCC(N3CCN(C)CC3)CC2)ccc1Nc1ncc(Cl)c(Nc2ccccc2P(C)(C)=O)n1	class 0

*Q* Outcome logged for C[C@H]1CCC/C=C/[C@@H]2C[C@H](O)C[C@H]2[C@H](O)[C@H](S(=O)c2ccc(O)cc2)CC(=O)O1 (stereo partly drawn) in this assay:
*A* class 1

*Q* Outcome logged for `COc1cc2[nH]c(C(=O)c3cc(OC)c(OC)c(OC)c3)c(N)c2cc1C#CCO` in this assay:
*A* class 1

*Q* Outcome logged for `COc1ccc(-c2cc(-c3ccc(Nc4nc(Nc5ccc(Cl)cc5)nc(Nc5ccc(Cl)cc5)n4)cc3)no2)cc1` in this assay:
*A* class 0

*Q* Outcome logged for `CCc1ccc(C2=C/C(=C/c3ccc(Cl)cc3)C(=O)N2CCc2ccc(S(N)(=O)=O)cc2)cc1` in this assay:
*A* class 0

*Q* Outcome logged for `CN1CCN(C(=O)c2ccc(NC(=O)Nc3ccc(N(C)c4ccnc(Nc5ccc(CS(C)(=O)=O)cc5)n4)cc3)cc2)CC1` in this assay:
*A* class 0

###

Test system: PC-3 prostate
Test Name: NCI tumour cell line growth inhibition, 48 h
Recorded Endpoint: TGI

For orientation, consider the following solved cases.
Molecule	Result
CC(C)=CCNc1ncnc2c1ncn2CCC(=O)OC(C)(C)C	> 100 µM
COc1ccc(NC(=O)C(=O)C(CC2C(=O)NC(=S)NC2=O)C(=O)c2ccc3ccccc3c2)c([N+](=O)[O-])c1 (stereo not given)	> 100 µM
CCCCCCCCCCCCCCCCC1=CC(=O)C=C(OC)C1=O	> 100 µM
COC(=O)C1([C@@H]2C[C@@H](O)[C@]3(C)CC/C=C(\C)CCC[C@H](C)[C@H](O)[C@@H]2O3)CC1	> 100 µM
CCOC(=O)/C(C#N)=C(/NS(=O)(=O)c1cc(C)c(Cl)cc1[S-])[n+]1ccc(N(C)C)cc1	> 100 µM
CCN1C(=O)N(CC)C2C1NN=c1s/c(=C3\C(=O)N(CCC(C)C)c4ccccc43)c(=O)n12 (stereo not given)	> 100 µM
CC(=O)N1NC(c2ccccc2)=CC(=O)/C1=C/C(=O)c1ccccc1	> 100 µM
COc1ccc(C)c2c1N[C@](C)([C@]1(C)Nc3c(OC)ccc(C)c3C1=O)C2=O	> 100 µM
CCCCCCCC/C=C\CCCCCCCCNc1ccn(C2OC(COP(=O)(O)OC3CC(n4cc(F)c(=O)[nH]c4=O)OC3CO)C(O)C2O)c(=O)n1 (stereo not given)	> 100 µM
C=C(Cl)C(C)(Cl)CCC(Cl)C(C)(C)Cl (stereo not given)	> 100 µM

*Q* Under PC-3 prostate: report TGI of `O=C(O)C(=O)Cc1ccc2c(c1)OCO2` .
*A* > 100 µM

*Q* Under PC-3 prostate: report TGI of [N-]=[N+]=NC1(N=[N+]=[N-])C(=O)NN=C(c2ccccc2)C1=O (stereo not given) .
*A* > 100 µM

*Q* Under PC-3 prostate: report TGI of NC1=NC(=O)N2CC12 (stereo not given) .
*A* 1130 µM

*Q* Under PC-3 prostate: report TGI of `C=C(C)C(=O)NC(N)=NC#N` .
*A* 293 µM

*Q* Under PC-3 prostate: report TGI of `COc1cccc2c1C(=O)C(=O)c1c-2oc(=O)c2cc(C)cc(OC)c12` .
*A* > 75 µM

*Q* Under PC-3 prostate: report TGI of `COC(=O)c1cc(Br)c(C(=O)C(Cl)(Cl)Cl)[nH]1` .
*A* > 100 µM

*Q* Under PC-3 prostate: report TGI of `C=CCNC1=C2C[C@@H](C)C[C@@H](OC)[C@H](OC(=O)CN(C)C)[C@H](C)/C=C(\C)[C@@H](OC(N)=O)[C@H](OC)/C=C\C=C(/C)C(=O)NC(=CC1=O)C2=O` .
*A* 16.6 µM

*Q* Under PC-3 prostate: report TGI of NCC(=O)C(O)C(O)C(O)CO (stereo not given) .
*A* > 100 µM

*Q* Under PC-3 prostate: report TGI of COc1cc(CC2CCc3nc(N)nc(N)c3C2)cc(OC)c1OC (stereo not given) .
*A* > 100 µM

*Q* Under PC-3 prostate: report TGI of `O=[N+]([O-])C(/C(Cl)=C(/Cl)N1CCCCC1)=C1\NCCO1` .
*A* > 100 µM

###

Tested on: HT29 colon
Test Name: NCI tumour cell line growth inhibition, 48 h
Parameter: GI50. Scope: all listed entries.

For orientation, consider the following solved cases.
Compound Structure String	Result
CC(=O)[O-].CC(=O)[O-].[Mn+2].c1ccc(/C(=N\Nc2ccccn2)c2ccccn2)cc1	2.76 nM
COc1cc2c(c(OC)c1OC)-c1ccc([O-])c(=O)cc1[C@@H](NC(C)=O)CC2.COc1cc2c(c(OC)c1OC)-c1ccc([O-])c(=O)cc1[C@@H](NC(C)=O)CC2.[Cu+2]	3430 nM
C/C(=C\c1ccn(-c2ccc(N)c(C(F)(F)F)c2)n1)[C@@H]1C[C@@H]2O[C@]2(C)CCC[C@H](C)[C@H](O)[C@@H](C)C(=O)C(C)(C)[C@@H](O)CC(=O)O1	5.42 nM
CN(C)CC/C=C1\c2ccccc2Sc2ccc(Cl)cc21	1980 nM
CCc1ccc(C2=C/C(=C/c3ccc(Cl)cc3)C(=O)N2CCc2ccc(S(N)(=O)=O)cc2)cc1	2220 nM
COc1ccc(C(=O)/C=C/c2cc3ccccc3[nH]c2=O)cc1	19300 nM

*Q* Under HT29 colon: report GI50 of `CC[O-].CC[O-].[O-]c1ccccc1C=Nc1ccccc1.[O-]c1ccccc1C=Nc1ccccc1.[Ti+4]` .
*A* > 100000 nM

*Q* Under HT29 colon: report GI50 of `O=C1C=C(Nc2ccccc2)c2ncccc2C1=O` .
*A* 2780 nM

###

Test system: NCI-H522 lung
Test Name: NCI tumour cell line growth inhibition, 48 h
Recorded Endpoint: TGI (µM)
Report the value in µM with no unit label.

Compound Structure String	Measured Number
COc1ccc(-c2cc(-c3ccc(Nc4nc(Nc5ccc(Cl)cc5)nc(Nc5ccc(Cl)cc5)n4)cc3)no2)cc1	25.5
O=C(NO)c1cccc(OCc2ccc(Br)cc2)c1	16.2
Nn1c(CCCl)nc2c(Br)cc(Br)cc2c1=O	38.5

Continue with the compound presented below.
*Q* Read off the recorded TGI for `COc1cc(N2CCC(N3CCN(C)CC3)CC2)ccc1Nc1ncc(Cl)c(Nc2ccccc2P(C)(C)=O)n1`
*A* 17.3

###

Test system: NCI/ADR-RES ovarian
Test Name: NCI tumour cell line growth inhibition, 48 h
Recorded Endpoint: TGI

*Q* Read off the recorded TGI for `C=C1C(=O)O[C@@H]2[C@H]1CC[C@H](C)[C@]1(O)CCC(=O)[C@@]21C`
*A* > 10 µM

*Q* Read off the recorded TGI for `Cc1cc(Cl)ccc1Nc1sc(C(=O)c2cc3cc(Cl)ccc3o2)c(N)c1C#N`
*A* > 23.5 µM

###

Parameter: TGI. Scope: all listed entries.
Test system: OVCAR-3 ovarian
Test Name: NCI tumour cell line growth inhibition, 48 h

Compound Structure String	Measured On	TGI
CCCCCCCCN(CCCCCCCC)C(=N)c1ccnc2ccccc12	OVCAR-3 ovarian	2.54 µM
O=C(Sc1c(-c2ccccc2)c(=O)n(-c2ccccc2)c(=S)n1-c1ccccc1)c1ccc(Cl)cc1	OVCAR-3 ovarian	> 100 µM
CCOC(=O)Cc1ccc(Nc2nc3cc(C(F)(F)F)ccc3nc2C(=O)OCC)cc1	OVCAR-3 ovarian	> 100 µM

*Q* Read off the recorded TGI for `COc1cccc(/C=C(/C(=O)O)c2cc(OC)c(OC)c(OC)c2)c1`
*A* > 100 µM

*Q* Read off the recorded TGI for `CN(C(=O)OC(C)(C)C)[C@H]1CCCC[C@H]1N1CCCC1`
*A* > 100 µM

*Q* Read off the recorded TGI for `C=C(C)C(=O)NC(N)=NC#N`
*A* 259 µM

###

System: HCT-15 colon
Test Name: NCI tumour cell line growth inhibition, 48 h; in the data active = GI50 below about 0.43 µM; inactive = the rest
Select the correct class. Options are active, inactive and nothing else.

Examples from the recorded data:
Molecule	Label Class
CCc1ccc(C2=C/C(=C/c3ccc(Cl)cc3)C(=O)N2CCc2ccc(S(N)(=O)=O)cc2)cc1	inactive
CCC1CCc2nc3sc(C(=O)Nc4ccccc4F)c(N)c3cc2C1 (stereo unspecified)	active
O=c1oc2ccc(Cl)cc2c(=O)n1-c1ccc(Cl)cc1F	inactive
COc1cccc(-c2nn(-c3ccccc3)cc2-c2ccnc(NCCNS(=O)(=O)c3ccc(C(F)(F)F)cc3)c2)c1	inactive
Cc1cc(NC(=O)c2ccc(NS(=O)(=O)CCO)cc2N2CCC3(CC2)CC3)nc(N2CCC(F)(F)CC2)n1	inactive

*Q* Outcome logged for `CCOC(=O)[C@H](CSSc1ncnc2cc[nH]c12)NC(=O)[C@@H](C)c1ccc2cc(OC)ccc2c1` in this assay:
*A* inactive

*Q* Outcome logged for `COc1cc2[nH]c(C(=O)c3cc(OC)c(OC)c(OC)c3)c(N)c2cc1C#CCO` in this assay:
*A* inactive

*Q* Outcome logged for `COc1ccc(C(=S)c2cc(OC)c(OC)c(OC)c2)cc1OC(=O)CCl` in this assay:
*A* active

*Q* Outcome logged for `CCCCCCCCN(CCCCCCCC)C(=N)c1ccnc2ccccc12` in this assay:
*A* active

*Q* Outcome logged for `COc1ccc(-c2cc(-c3ccc(Nc4nc(Nc5ccc(Cl)cc5)nc(Nc5ccc(Cl)cc5)n4)cc3)no2)cc1` in this assay:
*A* inactive

*Q* Outcome logged for `Nc1ncc(-c2cnn(C3CCNCC3)c2)cc1-c1nc2ccccc2o1` in this assay:
*A* inactive
